Documented log10 of IC50 across a set of compounds
measured_target: PDE10A (Homo sapiens, UniProt Q9Y233)
Construct: made in house; host or cells: SF21 insect cells (baculovirus)
Sequence (Q9Y233 1-779 isoform Q9Y233-1): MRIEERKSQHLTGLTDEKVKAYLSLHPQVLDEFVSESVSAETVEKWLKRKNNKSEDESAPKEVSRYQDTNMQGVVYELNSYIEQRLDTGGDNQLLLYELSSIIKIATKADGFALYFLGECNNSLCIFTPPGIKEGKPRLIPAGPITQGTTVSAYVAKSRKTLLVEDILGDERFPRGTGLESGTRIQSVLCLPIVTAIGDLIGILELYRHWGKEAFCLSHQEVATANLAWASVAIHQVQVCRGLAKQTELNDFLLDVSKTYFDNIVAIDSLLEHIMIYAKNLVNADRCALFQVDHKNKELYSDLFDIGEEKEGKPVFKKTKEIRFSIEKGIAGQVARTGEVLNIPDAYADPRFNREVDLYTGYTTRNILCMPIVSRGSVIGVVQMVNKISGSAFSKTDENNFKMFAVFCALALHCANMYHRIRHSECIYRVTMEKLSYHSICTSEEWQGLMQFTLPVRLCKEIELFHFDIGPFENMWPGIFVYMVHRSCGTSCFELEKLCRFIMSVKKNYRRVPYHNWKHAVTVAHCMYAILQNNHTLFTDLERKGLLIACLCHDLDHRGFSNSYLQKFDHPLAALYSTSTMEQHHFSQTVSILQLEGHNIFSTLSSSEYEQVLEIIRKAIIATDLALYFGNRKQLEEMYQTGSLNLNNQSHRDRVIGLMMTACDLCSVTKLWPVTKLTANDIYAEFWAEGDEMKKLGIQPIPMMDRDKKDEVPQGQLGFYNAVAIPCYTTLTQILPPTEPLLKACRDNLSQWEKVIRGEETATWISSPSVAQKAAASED
protocol_description: Inhibition of recombinant PDE10A (baculovirus/SF21 system), [3H]-cAMP SPA
Format: biochemical
cond: recombinant PDE10A1, cytosolic; 0.1 μM [3H]-cAMP, 37° C., 30 minutes; read-out: PDE10A IC50
Values are log10 of IC50 in µM.

// solved cases for log10 of IC50 follow
cpd_smiles	value_kind	readout_value
Cc1nc(-c2cc(Cl)ccc2Cl)n2c1nnc1ccc(F)cc12	log10 of IC50	-0.75
CCc1nc(C)c2nnc3ccc(F)cc3n12	log10 of IC50	0.59
COc1cc(OC)c2nnc3c(C)nc(-c4cnccc4C)n3c2c1	log10 of IC50	-2.38
COc1cc(F)cc2c1nnc1c(C)nc(-c3cccc(F)c3C)n12	log10 of IC50	-2.45

Entry under test: Cc1nc(-c2ccccc2Cl)n2c1nnc1ccc(OCc3ccc(F)cc3)cc12 . Its log10 of IC50 was -1.61

Briefly, log10 of IC50 measured for COc1cc(F)c2nnc3c(C)nc(-c4ccc(F)nc4C)n3c2c1 : -0.60

Field log10 of IC50 (entry COc1cc(F)c2nnc3c(C)nc(-c4ccccc4OC)n3c2c1 ) reads -2.08

# log10 of IC50 (compound: COc1ccc(Cl)c(-c2nc(C)c3nnc4cc(F)ccc4n23)c1 ) is -0.37

The measured log10 of IC50 associated with COc1cccc2c1nnc1c(C)nc(-c3ccncc3C)n12 reads -2.08

Please fill in: log10 of IC50 reported for COc1ccc(Cl)cc1-c1nc(C)c2nnc3c(OC)cc(F)cc3n12 = -1.84
